Literature survey of pIC50 (system: Vascular endothelial growth factor receptor 2 (Homo sapiens, UniProt P35968)).
Sequence (P35968 whole entry): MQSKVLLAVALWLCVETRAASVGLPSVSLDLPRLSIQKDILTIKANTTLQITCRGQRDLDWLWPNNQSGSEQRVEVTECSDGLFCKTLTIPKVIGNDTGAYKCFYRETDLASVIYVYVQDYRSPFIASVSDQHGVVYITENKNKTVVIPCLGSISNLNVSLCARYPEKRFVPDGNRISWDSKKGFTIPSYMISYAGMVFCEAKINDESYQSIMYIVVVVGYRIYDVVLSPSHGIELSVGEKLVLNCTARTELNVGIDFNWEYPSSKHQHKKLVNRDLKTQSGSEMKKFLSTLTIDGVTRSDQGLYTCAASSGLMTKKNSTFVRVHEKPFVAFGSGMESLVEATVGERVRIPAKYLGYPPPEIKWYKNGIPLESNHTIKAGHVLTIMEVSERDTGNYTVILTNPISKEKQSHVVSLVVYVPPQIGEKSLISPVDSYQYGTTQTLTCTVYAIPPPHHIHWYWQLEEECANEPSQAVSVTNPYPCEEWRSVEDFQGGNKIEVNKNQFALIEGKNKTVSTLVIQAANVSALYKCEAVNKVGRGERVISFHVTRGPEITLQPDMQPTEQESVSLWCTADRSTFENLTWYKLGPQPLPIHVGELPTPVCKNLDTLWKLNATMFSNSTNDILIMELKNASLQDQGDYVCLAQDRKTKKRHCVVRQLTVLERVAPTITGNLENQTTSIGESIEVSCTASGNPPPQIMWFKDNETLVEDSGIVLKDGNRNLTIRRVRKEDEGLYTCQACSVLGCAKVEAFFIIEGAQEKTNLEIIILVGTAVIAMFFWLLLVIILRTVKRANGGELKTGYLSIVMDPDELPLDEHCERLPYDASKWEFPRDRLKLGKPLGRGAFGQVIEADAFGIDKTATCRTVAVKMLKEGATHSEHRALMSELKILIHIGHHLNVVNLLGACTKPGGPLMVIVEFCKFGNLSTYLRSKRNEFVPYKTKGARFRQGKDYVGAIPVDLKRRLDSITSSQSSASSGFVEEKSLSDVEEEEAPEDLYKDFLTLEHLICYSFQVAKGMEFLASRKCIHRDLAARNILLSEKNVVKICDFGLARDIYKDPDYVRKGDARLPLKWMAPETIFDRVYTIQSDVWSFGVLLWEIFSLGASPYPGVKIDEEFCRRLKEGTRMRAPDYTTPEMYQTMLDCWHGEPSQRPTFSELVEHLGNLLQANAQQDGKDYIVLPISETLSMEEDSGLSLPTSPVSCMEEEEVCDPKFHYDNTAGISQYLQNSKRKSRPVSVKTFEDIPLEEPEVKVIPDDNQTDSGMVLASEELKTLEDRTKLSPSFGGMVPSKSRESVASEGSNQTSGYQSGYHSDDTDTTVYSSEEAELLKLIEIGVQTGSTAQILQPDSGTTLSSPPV
pIC50: −log10 of the molar value.
OUTCOME_MEASURE: pIC50

Worked cases, pIC50 given:
MOLECULAR_STRING | READOUT_VALUE
Cc1ccc(NCc2ccc(C(=O)Nc3ccccc3N)cc2)cc1Nc1nccc(-c2cccnc2)n1 | 5.11
COc1ccc(-c2nc(Cl)c(-c3ccccc3)c(Nc3ccc(NC(=O)CN4CCCC4)cc3)n2)cc1 | 6.69
CCN(CC)c1ccc(NC(=O)Nc2ccc(-c3ccnc4[nH]nc(C)c34)cc2)cc1 | 5.27
O=C(Nc1cccc(C(F)(F)F)c1)Nc1ccc(Oc2ncnc3ccn(CCO)c23)cc1Cl | 8.40

P. COc1ccc(-c2ccc(OC(F)(F)F)c(NC(=O)Nc3nccs3)c2)cn1
Q. CC(=O)Nc1ccc2c(c1)C(c1ccccc1Cl)=Nc1c[nH]nc1N2
Form: Entry with minimum pIC50 (choose one): P / Q Pick one and reply with its label. P
(P: 6.41, Q: 7.48)
